FYI, the data here is from ChEMBL document CHEMBL1140725.

Tested on: Liver microsomes
EXPERIMENTAL PROTOCOL: Prodrug activation in Wistar rat liver microsome assessed as formation of adefovir at 250 uM after 5 mins
READOUT TYPE: Activity (nmol/min/mg)

// known answers, use as guide
COc1ccc(C2CCOP(=O)(COCCn3cnc4c(N)ncnc43)O2)cc1Br (stereo not given) | 1.1
Nc1ncnc2c1ncn2CCOC[P@@]1(=O)OCC[C@@H](c2cccc(Cl)c2)O1 | 0.51

P = Nc1ncnc2c1ncn2CCOCP1(=O)OCCC(c2cc(F)cc(F)c2)O1 (stereo not given)
Q = CC(C)(C)c1ccc(C2CCOP(=O)(COCCn3cnc4c(N)ncnc43)O2)cc1 (stereo not given)
R = Nc1ncnc2c1ncn2CCOCP1(=O)OCCC(c2ccccc2Cl)O1 (stereo not given)
input: Your job: order these 3 records by Activity, ascending. To answer, arrange all of the labels according to the requested order.
output: Q, P, R
